Every entry's value here was drawn from paper PMC3171579.

# SUBJECT OF TEST: FK506-binding protein 12 (human, UniProt P62942 1-108)
# Sequence (P62942 whole entry): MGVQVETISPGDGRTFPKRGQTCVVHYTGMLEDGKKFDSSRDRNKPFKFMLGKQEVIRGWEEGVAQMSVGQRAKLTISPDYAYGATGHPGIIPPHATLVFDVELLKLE
# METHOD: fluorescence polarisation
pIC50: −log10 of the molar value. Non-standard residues stand in square brackets, D forms with d. *: point of attachment. Dkb = 3,3-dimethyl-2-ketobutyryl, CC(C)(C)C(=O)C(=O)*; d(β3hF) = N[C@@H](CC(=O)O)Cc1ccccc1; Pip = O=C(O)[C@@H]1CCCCN1; Nle = CCCC[C@H](N)C(=O)O
MEASURED PARAMETER: pIC50

(A) cyclo(A[dT]P[dA][Dkb][Pip][d(β3hF)]Q) (also: 5 Dkb: ester to 4) [rapalog 12 (R3 Pro, R4 D-Thr)]
(B) cyclo([Nle]P[dA][Dkb][Pip][d(β3hF)]Q) (also: 4 Dkb: ester to 3) [rapalog 11 (R3 Pro, R4 Nle)]
Which item exceeds the other in pIC50, A or B ? Output the label that corresponds to your choice.
A
(A: 4.42, B: 4.15)
